Target Or Test System: AgamOBP4 (Anopheles gambiae, UniProt Q8T6R7)
Sequence (Q8T6R7 26-150): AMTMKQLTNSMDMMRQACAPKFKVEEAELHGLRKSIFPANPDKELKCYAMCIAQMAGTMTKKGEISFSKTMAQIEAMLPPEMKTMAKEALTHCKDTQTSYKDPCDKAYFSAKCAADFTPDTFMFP
Parameter: pKi
pKi field: float, defined as -log10 of concentration (mol/L).

IN: Name the reported pKi value associated with the compound CC(C)=CCCC(C)CC=O (stereo not shown)
OUT: 6.15

====

Target Or Test System: AgamORC7 (Anopheles gambiae, UniProt Q7QCC7)
Sequence (Q7QCC7 whole entry): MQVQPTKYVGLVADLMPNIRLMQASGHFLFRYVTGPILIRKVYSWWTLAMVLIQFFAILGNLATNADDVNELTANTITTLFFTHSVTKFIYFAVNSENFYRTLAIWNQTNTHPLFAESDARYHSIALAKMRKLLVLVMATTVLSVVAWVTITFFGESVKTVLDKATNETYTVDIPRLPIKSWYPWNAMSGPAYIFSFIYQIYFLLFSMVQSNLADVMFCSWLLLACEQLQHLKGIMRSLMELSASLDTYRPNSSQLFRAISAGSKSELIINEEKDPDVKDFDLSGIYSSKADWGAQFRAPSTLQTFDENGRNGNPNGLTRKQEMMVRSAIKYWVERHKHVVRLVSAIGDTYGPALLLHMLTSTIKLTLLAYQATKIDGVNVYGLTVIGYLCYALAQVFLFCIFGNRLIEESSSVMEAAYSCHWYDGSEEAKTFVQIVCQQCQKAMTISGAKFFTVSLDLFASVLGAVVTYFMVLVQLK
Parameter: pIC50
pIC50 field: float, defined as -log10 of concentration (mol/L).

IN: Name the reported pIC50 value associated with the molecule CC(C)=CCCC(C)CC=O (stereo not shown)
OUT: 5.65

====

Target Or Test System: AgamORC7 (Anopheles gambiae)
Parameter: Kd (µM)
Respond with the bare value in µM.

IN: Field: Kd (AgamORC7 (Anopheles gambiae)). Entry: c1ccc(Nc2cccc3ccccc23)cc1 [1-NPN, 1-N-phenyl-naphthylamine]
OUT: 1.12
